Test system: SARS-CoV-2 stock strain NL/2020
assay.info: Intracellular viral antigen (N protein) accumulation by immunofluorescence, A549-ACE2
Assay type: cell-based
experimental.context: Severe acute respiratory syndrome coronavirus 2; A549-ACE2, MOI 0.005, viral antigen staining, 48 h
Reported pEC50 is given for each of the following compounds.
Scale explanation: pEC50 corresponds to minus log10 of a concentration expressed in moles per litre.

Consider the worked cases shown below.
COC(=O)c1cc(-c2ccc(N3CCOCC3)cc2)ccc1NC(C#N)[C@H](Cc1c[nH]c2ccccc12)NC(=O)OC(C)(C)C (stereo partly shown)    6.00
COC(=O)c1cc(-c2cccc(N3CCOCC3)c2)ccc1NC(C#N)[C@H](Cc1c[nH]c2ccccc12)NC(=O)OC(C)(C)C (stereo partly shown)    5.74
COC(=O)c1cc(-c2ccc(N3CCCC3)nc2)ccc1NC(C#N)[C@H](Cc1c[nH]c2ccccc12)NC(=O)OC(C)(C)C (stereo partly shown)    5.82

Turning to the following compound.
Quick one: pEC50 of CC(C)(C)OC(=O)N[C@@H](Cc1c[nH]c2ccccc12)C(C#N)Nc1ccc(Br)cc1C(=O)c1ccccc1 (stereo partly shown) ?
6.00

---

Tested on: SARS-CoV-2 stock strain NL/2020
assay.info: Protective effect against virus-induced cytopathic effect (crystal violet staining of Vero-E6 monolayer)
Type: cell-based
experimental.context: Severe acute respiratory syndrome coronavirus 2, Vero C1008, 72 h, Vero-E6, SARS-CoV-2 MOI 0.001, 72 h, 50 to 0.78 μM tested; read-out: PC MIN (lowest protective concentration)
assay.metric: minimal effective concentration (µM)
Supply the numeric figure in µM, leaving out any unit text.

Consider the worked cases shown below.
COC(=O)c1cc(-c2cc(OC(C)C)ccc2F)ccc1NC(C#N)[C@H](Cc1c[nH]c2ccccc12)NC(=O)OC(C)(C)C (stereo partly shown) [(Ip)]    1.56
COC(=O)c1ccc(Br)cc1NC(C#N)[C@H](Cc1c[nH]c2ccccc12)NC(=O)OC(C)(C)C (stereo partly shown) [(Ii)]    1.56

Quick one: minimal effective concentration of COC(=O)c1cc(-c2cccc(C(C)(C)C)c2)ccc1NC(C#N)[C@H](Cc1c[nH]c2ccccc12)NC(=O)OC(C)(C)C (stereo partly shown) [(Iz)] ?
3.12

Quick one: minimal effective concentration of COC(=O)c1cc(-c2ccc(N3CCN(C(C)C)CC3)nc2)ccc1NC(C#N)[C@H](Cc1c[nH]c2ccccc12)NC(=O)OC(C)(C)C (stereo partly shown) [(Iae)] ?
3.12
